// provenance: patent US6046207A

system under test: α-1b (hamster) adrenoreceptor (Mesocricetus auratus, UniProt P18841)
Sequence (P18841 whole entry): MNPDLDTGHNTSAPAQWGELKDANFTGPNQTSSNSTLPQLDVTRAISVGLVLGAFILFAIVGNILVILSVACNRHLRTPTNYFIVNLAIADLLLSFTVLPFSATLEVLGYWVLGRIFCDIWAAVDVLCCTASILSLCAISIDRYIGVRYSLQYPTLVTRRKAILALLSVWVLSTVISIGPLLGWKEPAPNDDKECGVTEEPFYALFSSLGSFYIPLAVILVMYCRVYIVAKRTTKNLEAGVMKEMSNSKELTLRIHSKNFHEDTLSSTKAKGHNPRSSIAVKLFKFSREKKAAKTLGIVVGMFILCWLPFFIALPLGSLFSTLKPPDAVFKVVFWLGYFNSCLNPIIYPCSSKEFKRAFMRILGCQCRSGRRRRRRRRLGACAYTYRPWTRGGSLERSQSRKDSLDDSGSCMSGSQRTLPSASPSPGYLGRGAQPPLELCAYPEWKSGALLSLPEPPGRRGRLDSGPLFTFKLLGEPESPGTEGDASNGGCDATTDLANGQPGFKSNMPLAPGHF
experiment summary: biochemical
particulars: read-out: Radioligand Binding Ki, 1b (Hamster)
Procedure: In the following, for purposes of discussing alpha-1 adrenoreceptor subtypes, the IUPHAR convention of using lower case letters to define molecular clones and upper case letters to indicate pharmacologically defined adrenoreceptors has been followed. Moreover, the newly recommended nomenclature for alpha-1 (α1a, α1b, α1d) has been used. Additionally, binding affinity against the pharmacologically defined α-1A adrenoreceptor (rat submaxillary gland) was measured. […]
metric: pKi
To interpret pKi, take it as minus log10 of a concentration measured in moles per litre.

[in] Determine its reported pKi: COc1ccc2c(c1)[C@@H]1CN(CCCn3c(=O)[nH]c4c(sc5ncccc54)c3=O)C[C@@H]1CO2 (racemic)
[out] 5.00

###

system under test: α-1A adrenoreceptor (rat submaxillary gland) (Rattus norvegicus)
Sequence (P43140 1-466): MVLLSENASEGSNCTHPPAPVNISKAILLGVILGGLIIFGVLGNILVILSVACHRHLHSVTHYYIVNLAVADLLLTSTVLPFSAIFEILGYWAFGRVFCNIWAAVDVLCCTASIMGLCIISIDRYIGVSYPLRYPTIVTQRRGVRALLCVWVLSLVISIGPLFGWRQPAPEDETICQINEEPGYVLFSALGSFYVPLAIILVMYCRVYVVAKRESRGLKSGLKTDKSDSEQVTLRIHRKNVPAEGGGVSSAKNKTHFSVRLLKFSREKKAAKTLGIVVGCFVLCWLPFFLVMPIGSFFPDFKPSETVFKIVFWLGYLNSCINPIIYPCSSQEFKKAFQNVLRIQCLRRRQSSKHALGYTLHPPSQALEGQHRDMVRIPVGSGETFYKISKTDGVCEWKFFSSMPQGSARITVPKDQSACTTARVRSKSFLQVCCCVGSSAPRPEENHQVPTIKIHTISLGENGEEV
metric: pKi
Formally, pKi is defined as -log10 of the concentration c, with c in mol/L.

[in] Tell me pKi reported for COc1cccc2c1[C@@H]1CN(CCCCn3c(=O)[nH]c4c(sc5nc(Cl)ccc54)c3=O)C[C@@H]1CO2 [Example 32]
[out] 9.00

###

system under test: α-1a (bovine) adrenoreceptor (Bos taurus)
Sequence (P18130 whole entry): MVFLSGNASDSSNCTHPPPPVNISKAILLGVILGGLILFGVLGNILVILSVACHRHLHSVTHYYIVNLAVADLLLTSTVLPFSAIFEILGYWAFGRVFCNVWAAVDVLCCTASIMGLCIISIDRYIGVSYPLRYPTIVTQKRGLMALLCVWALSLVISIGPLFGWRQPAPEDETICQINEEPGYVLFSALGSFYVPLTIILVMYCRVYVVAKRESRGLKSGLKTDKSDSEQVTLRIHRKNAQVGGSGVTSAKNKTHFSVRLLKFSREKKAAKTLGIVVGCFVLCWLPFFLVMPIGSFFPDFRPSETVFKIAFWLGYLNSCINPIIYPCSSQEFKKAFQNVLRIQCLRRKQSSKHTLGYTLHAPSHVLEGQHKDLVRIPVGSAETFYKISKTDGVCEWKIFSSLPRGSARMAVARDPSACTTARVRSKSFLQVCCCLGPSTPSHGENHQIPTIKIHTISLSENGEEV
metric: pKi
Scale: pKi equals -log10([C]), with [C] in mol/L.

[in] For the compound COc1cccc2c1[C@@H]1CN(CCCCn3c(=O)[nH]c4c(sc5nc(Cl)ccc54)c3=O)C[C@@H]1CO2 , report pKi.
[out] 10.03
